experimental details: Cytotoxicity against human NCI-ADR-RES cells assessed as growth inhibition at 10 uM after 48 hrs by SRB assay
Type: functional
condition summary: read-out: GI
quantity: inhibition of growth at 10 µM (%)

smiles structure	unit symbol	numeric value
Cc1ccc(NC2=NS(=O)(=O)c3ccc(NC(=O)CCC(=O)O)cc32)cc1	%	-3
O=C(Nc1ccccc1)Nc1ccc(OC2=NS(=O)(=O)c3ccccc32)cc1	%	21
O=C(Nc1ccc(OC2=NS(=O)(=O)c3ccccc32)cc1)Nc1ccccc1Cl	%	13
O=C(Nc1ccccc1)Nc1ccc(NC2=NS(=O)(=O)c3ccccc32)cc1	%	-2
O=C(Nc1ccc(Cl)cc1)Nc1ccc2c(c1)C(Nc1ccc(Cl)cc1Cl)=NS2(=O)=O	%	79
COc1ccc(NC(=O)Nc2ccc(NC3=NS(=O)(=O)c4ccccc43)cc2)cc1	%	-6
O=C(Nc1ccc(NC2=NS(=O)(=O)c3ccccc32)cc1)Nc1cccc(Br)c1	%	8

Value source: ChEMBL document CHEMBL2331514
